These data points were gathered from patent US20240150368A1.

# TEST SYSTEM: ULK2 kinase (Homo sapiens, UniProt Q8IYT8)
# Sequence (Q8IYT8 with tags, fused parts or gaps): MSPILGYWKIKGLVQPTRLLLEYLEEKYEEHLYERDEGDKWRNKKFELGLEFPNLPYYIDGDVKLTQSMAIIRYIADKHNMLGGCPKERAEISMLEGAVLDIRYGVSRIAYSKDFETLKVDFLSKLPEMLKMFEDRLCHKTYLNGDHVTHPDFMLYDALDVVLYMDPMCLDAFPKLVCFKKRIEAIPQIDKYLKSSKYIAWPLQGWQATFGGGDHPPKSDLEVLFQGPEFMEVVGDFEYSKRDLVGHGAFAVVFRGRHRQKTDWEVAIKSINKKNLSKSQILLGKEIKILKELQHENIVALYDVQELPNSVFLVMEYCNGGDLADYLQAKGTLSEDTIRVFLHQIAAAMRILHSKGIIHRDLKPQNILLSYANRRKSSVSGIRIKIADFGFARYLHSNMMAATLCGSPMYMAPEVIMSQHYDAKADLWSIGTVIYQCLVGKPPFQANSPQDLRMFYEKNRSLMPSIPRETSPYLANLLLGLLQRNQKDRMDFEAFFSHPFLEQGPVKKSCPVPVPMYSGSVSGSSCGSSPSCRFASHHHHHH
RECORDED ENDPOINT: IC50

Below: 3 compounds and their reported IC50.
CC/C(Nc1cnn(C(C)C)c1)=C1/C(=O)Nc2ccc(C(C)=O)cc21
100 to 500 nM
CC/C(Nc1cnn(C2CCN(C(C)C)CC2)c1)=C1/C(=O)Nc2ccc(C(=O)NC3CC(F)(F)C3)cc21
10 to 100 nM
CC/C(Nc1ccc(N2CCN(C(C)C)CC2)cc1)=C1/C(=O)Nc2ccc(C(=O)NC[C@H]3CCCO3)cc21
10 to 100 nM

Here "CC/C(Nc1cnn(C2CC2)c1)=C1/C(=O)Nc2ccc(C(=O)NCC(F)(F)F)cc21" was tested on ULK2 kinase (Homo sapiens, UniProt Q8IYT8), and its IC50 came to 10 to 100 nM

Here "CC/C(Nc1ccc(N2CC3(CN(C)C3)C2)cc1)=C1/C(=O)Nc2ccc(C(=O)NCC(F)(F)F)cc21" was tested on ULK2 kinase (Homo sapiens, UniProt Q8IYT8), and its IC50 came to 10 to 100 nM

Here "CC/C(Nc1cnn(C2CCN(C(C)C)CC2)c1)=C1/C(=O)Nc2ccc(C(=O)NCC3CCCC3)cc21" was tested on ULK2 kinase (Homo sapiens, UniProt Q8IYT8), and its IC50 came to ≤ 10 nM

Here "CC/C(Nc1ccc(N2C[C@H]3CN(C)C[C@H]3C2)cc1)=C1/C(=O)Nc2ccc(C(=O)NCC(C)C)cc21" was tested on ULK2 kinase (Homo sapiens, UniProt Q8IYT8), and its IC50 came to 10 to 100 nM

* * *

Measured IC50, listed per entry.
# System: ULK kinase substrate ATG13 (pS318-ATG13) in MiaPaCa-2 cells
# ASSAY OVERVIEW: pATG13 levels of mutant KRas MiaPaCa-2 cells after treatment with ULK inhibitors in combination with trametinib (ELISA)
# Type: cell-based, human

Below: 3 compounds and their reported IC50.
CC/C(Nc1cnn(C)c1)=C1/C(=O)Nc2ccc(C(=O)NCC3(F)CC3)cc21
≤ 100 nM
CC/C(Nc1cnn(C(C)C)c1)=C1/C(=O)Nc2ccc(C(=O)NCC3(C)COC3)cc21
100 to 300 nM
CC/C(Nc1cnn(C2CCN(C3CCC3)CC2)c1)=C1/C(=O)Nc2ccc(C(=O)NCC(C)C)cc21
≤ 100 nM

# IC50 (compound: CC/C(Nc1cnn(C(C)CC)c1)=C1/C(=O)Nc2ccc(C(=O)NCC(F)(F)F)cc21 (centres unmarked) ) is ≤ 100 nM

# IC50 (compound: CC/C(Nc1cnn(C2CCN(C(C)C)CC2)c1)=C1/C(=O)Nc2ccc(C(=O)NCC3CCC(C4CC4)O3)cc21 (centres unmarked) ) is 100 to 300 nM

# IC50 (compound: "CC/C(Nc1cnn(C2CCN(CCOC)CC2)c1)=C1/C(=O)Nc2ccc(C(=O)NCC(C)C)cc21" ) is ≤ 100 nM

# IC50 (compound: "CC/C(Nc1ccc(N2CC3(CN(C)C3)C2)cc1)=C1/C(=O)Nc2ccc(C(=O)NC[C@H]3CCCO3)cc21" ) is ≤ 100 nM

# IC50 (compound: "CC/C(Nc1cnn(C2CC3(C2)CN(C)C3)c1)=C1/C(=O)Nc2ccc(C(=O)NCC(F)(F)F)cc21" ) is ≤ 100 nM

* * *

Measured pIC50, listed per entry.
# TEST SYSTEM: ULK1 kinase (Homo sapiens, UniProt O75385, E37A/K38A)
# Construct: (residues 1-283; ID NO: 1)
# Sequence (O75385 1-283 E37A/K38A): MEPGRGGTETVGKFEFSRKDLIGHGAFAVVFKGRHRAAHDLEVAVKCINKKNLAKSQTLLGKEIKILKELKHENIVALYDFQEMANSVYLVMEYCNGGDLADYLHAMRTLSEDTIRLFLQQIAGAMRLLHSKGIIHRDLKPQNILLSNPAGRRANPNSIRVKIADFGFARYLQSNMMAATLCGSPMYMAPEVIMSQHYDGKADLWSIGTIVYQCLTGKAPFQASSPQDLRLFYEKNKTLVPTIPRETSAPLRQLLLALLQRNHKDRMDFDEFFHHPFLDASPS
# ASSAY OVERVIEW: Biochemical assay for ULK1 (coupled pyruvate kinase/lactate dehydrogenase assay)
# EXPERIMENTAL SETUP: 1 mM ATP, 0.1 nM ULK1; read-out: ULK1 (inhibition of biochemical activity), IC50
# Experimental: Biochemical Assay for ULK1 (SEQ. ID NO: 1) Activity of ULK1 kinase was determined spectroscopically using a coupled pyruvate kinase/lactate dehydrogenase assay that continuously monitors the ATP hydrolysis-dependent oxidation of NADH (e.g., Schindler et al. Science (2000) 289: 1938-1942). […] Inhibition of ULK1 was measured by adding serial diluted test compound (final assay concentration of 1% DMSO). […] The reaction rate was calculated using the 2-3 h time frame. […]
pIC50: −log10 of the molar value.

CC/C(Nc1cnn(C(C)C)c1)=C1/C(=O)Nc2ccc(C(=O)NCC3(C#N)CC3)cc21 [Example 156]
≥ 8.00
CC/C(Nc1cnn(C(C)C)c1)=C1/C(=O)Nc2ccc(C(=O)NC[C@H]3CCCO3)cc21 [Example 95]
≥ 8.00
CC/C(Nc1ccc(-c2nc(C)no2)cc1)=C1/C(=O)Nc2ccc(C(=O)NCC(F)(F)F)cc21 [Example 78]
7.00 to 8.00
CC/C(Nc1cnn(C2CC(F)(F)C2)c1)=C1/C(=O)Nc2ccc(C(=O)NCC(F)(F)F)cc21 [Example 144]
≥ 8.00
CC/C(Nc1cnn(C2CCN(C(C)C)CC2)c1)=C1/C(=O)Nc2ccc(C(=O)NCC3(C)CCCO3)cc21 (centres unmarked) [Example 56]
7.00 to 8.00
CC/C(Nc1cnn(C2CCN(C(C)C)CC2)c1)=C1/C(=O)Nc2ccc(C(=O)NCCC(=O)N(C)C)cc21 [Example 59]
6.30 to 7.00
CC/C(Nc1ccc(N2CCN(C(C)C)CC2)cn1)=C1/C(=O)Nc2cc(F)c(C(=O)NCC(F)(F)F)cc21 [Example 92]
6.30 to 7.00
CC/C(Nc1cnn(C)c1)=C1/C(=O)Nc2ccc(C(=O)NCC(F)(F)F)cc21 [Example 77]
≥ 8.00

# pIC50 (compound: CC/C(Nc1cnn(C(C)C)c1)=C1/C(=O)Nc2ccc(C(=O)NCC(C)C)cc21 [Example 130] ) is ≥ 8.00

# pIC50 (compound: CC/C(Nc1ccc(N2CCN(C)CC2)cc1)=C1/C(=O)Nc2ccc(C(=O)NOC)cc21 [Example 10] ) is 6.30 to 7.00

* * *

# TEST SYSTEM: ULK1 kinase (Homo sapiens, UniProt O75385, E37A/K38A)
# Construct: (residues 1-283; ID NO: 1)
# ASSAY OVERVIEW: Biochemical assay for ULK1 (coupled pyruvate kinase/lactate dehydrogenase assay)
# EXPERIMENTAL SETUP: 1 mM ATP, 0.1 nM ULK1; read-out: ULK1 (inhibition of biochemical activity), IC50
pIC50: −log10 of the molar value.
RECORDED ENDPOINT: pIC50

Below: 2 molecules and their reported pIC50.
CC/C(Nc1cnn(C2CCN(C(C)C)CC2)c1)=C1/C(=O)Nc2ccc(C(=O)NC[C@H]3CCCO3)cc21 [Example 1]
≥ 8.00
CC/C(Nc1cnn(C(C)C)c1)=C1/C(=O)Nc2ccc(C(=O)C3CC3)cc21 [Example 6]
7.00 to 8.00

# pIC50 (molecule: CC/C(Nc1cnn(C(C)C)c1)=C1/C(=O)Nc2ncc(C(=O)NCC(C)(C)F)cc21 [Example 170] ) is 6.30 to 7.00

# pIC50 (molecule: CC/C(Nc1cnn(C(C)C)c1)=C1/C(=O)Nc2ccc(C(=O)NCC3CC(F)(F)C3)cc21 [Example 134] ) is ≥ 8.00

# pIC50 (molecule: CC/C(Nc1ccc(N2CC3(COC3)C2)cc1)=C1/C(=O)Nc2ccc(C(=O)NCC(F)(F)F)cc21 [Example 85] ) is 7.00 to 8.00

* * *

Measured IC50, listed per entry.
# TEST SYSTEM: ULK1 kinase (Homo sapiens, UniProt O75385, E37A/K38A)
# Construct: (residues 1-283; ID NO: 1)
# ASSAY OVERVIEW: Biochemical assay for ULK1 (coupled pyruvate kinase/lactate dehydrogenase assay)
# EXPERIMENTAL SETUP: 1 mM ATP, 0.1 nM ULK1; read-out: ULK1 (inhibition of biochemical activity), IC50

Below: 2 compounds and their reported IC50.
CC/C(Nc1cnn(C(C)C)c1)=C1/C(=O)Nc2ccc(C(=O)NCCN3CCC3)cc21
> 500 nM
CC/C(Nc1cnn(CCN(C)C)c1)=C1/C(=O)Nc2ccc(C(=O)NCC(F)(F)F)cc21
≤ 10 nM

# IC50 (compound: "CC/C(Nc1cnn(C(C)C)c1)=C1/C(=O)Nc2ccc(C(=O)NC3CC3)cc21" ) is 100 to 500 nM

# IC50 (compound: "CC/C(Nc1cnn(CC)c1)=C1/C(=O)Nc2ccc(C(=O)NCC(F)(F)F)cc21" ) is ≤ 10 nM

# IC50 (compound: CC/C(Nc1cnn(C(C)CC)c1)=C1/C(=O)Nc2ccc(C(=O)NCC(F)(F)F)cc21 (stereo not drawn) ) is 10 to 100 nM

# IC50 (compound: "CC/C(Nc1cnn(C2CN(C)C2)c1)=C1/C(=O)Nc2ccc(C(=O)NCC(C)C)cc21" ) is 10 to 100 nM

# IC50 (compound: "CC/C(Nc1cnn(C2CCN(C(C)C)CC2)c1)=C1/C(=O)Nc2ccc(C(=O)NCC3CCC3)cc21" ) is ≤ 10 nM

# IC50 (compound: "CC/C(Nc1cnc(N2CCN(C(C)C)CC2)cn1)=C1/C(=O)Nc2ccc(C(=O)NCC(F)(F)F)cc21" ) is 10 to 100 nM

# IC50 (compound: "CC/C(Nc1ccc(N2CCN(C(C)C)CC2)cn1)=C1/C(=O)Nc2ccc(C(=O)NC[C@H]3CCCO3)cc21" ) is ≤ 10 nM
